target: human CYP11B2 (Homo sapiens (Human), UniProt P19099); assay: V79-Human-CYP11B2 Assay; conditions: V79MZh11B2 cells, substrate deoxycorticosterone 100 nM, 50 min incubation
Sequence (P19099 25-503): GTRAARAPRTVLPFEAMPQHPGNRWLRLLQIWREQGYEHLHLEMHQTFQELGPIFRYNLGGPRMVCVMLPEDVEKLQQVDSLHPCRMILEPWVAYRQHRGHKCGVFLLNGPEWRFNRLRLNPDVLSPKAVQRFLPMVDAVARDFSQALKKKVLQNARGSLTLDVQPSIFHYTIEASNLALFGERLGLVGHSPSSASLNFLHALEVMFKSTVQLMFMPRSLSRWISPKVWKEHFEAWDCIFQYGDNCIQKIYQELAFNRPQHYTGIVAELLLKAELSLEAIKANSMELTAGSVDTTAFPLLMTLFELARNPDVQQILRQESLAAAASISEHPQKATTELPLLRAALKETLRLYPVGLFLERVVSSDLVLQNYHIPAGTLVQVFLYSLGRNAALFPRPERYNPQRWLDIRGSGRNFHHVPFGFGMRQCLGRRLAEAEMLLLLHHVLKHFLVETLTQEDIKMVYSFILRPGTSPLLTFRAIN
pIC50: −log10 of the molar value.
PARAMETER_MEASURED: pIC50

Answered examples (2):
Q: pIC50 lookup needed for Cc1nnc2n1-c1c(F)cc(-c3cncc(F)c3C(C)C)cc1CC2 [Example 3] , thanks.
Result: 8.02

Q: Moving on to the next compound: Cc1nnc2n1-c1c(F)cc(-c3cncc(F)c3C3CC3)cc1CC2 [Example 1]
Result: 8.14

(A) Cc1c(F)cncc1-c1cc(F)c2c(c1)CCc1nnc(C)n1-2 [Example 2]
(B) Cc1nnc2n1-c1c(F)cc(-c3cncc(F)c3Cl)cc1CC2 [Example 4]
Q: Decide: A or B , by lowest recorded pIC50. To answer, give the label that identifies your chosen option.
Result: B
